FYI, the data here is from paper PMC6356585.

Test system: ZIKV SPH
Assay: 7-Ketocholesterol dose-response, ZIKV SPH titer in Vero cells
Assay type: cell-based
Conditions: Zika virus, MOI 1, 24 h, 0–27 µM, TCID50, R^2 = 0.9078
property_label: IC50 (µM)
Expressed in µM, but write only the number.

Kindly state the measured IC50 obtained for `CC(C)CCC[C@@H](C)[C@H]1CC[C@H]2[C@@H]3C(=O)C=C4C[C@@H](O)CC[C@]4(C)[C@H]3CC[C@]12C` with ZIKV SPH.
4.06

###

System: Vero cells
Assay: Cell viability (CellTiter-Glo) of Vero cells
Type: cell-based
Details: 10 µM compound, 40 h, CellTiter-Glo; ± SEM, three independent trials
For each record, write down the corresponding Vero Viability.

Report Vero Viability for CC(C)Cn1cnc2c(N)nc3ccccc3c21 [Imiquimod] tested on Vero cells.
91.3 ± 1.2% of untreated control

Could you share what Vero Viability was measured for O=C(CC(=O)C(F)(F)F)c1cccs1 [TTFA] , tested on Vero cells?
90.0 ± 3.5% of untreated control

Item CC(=O)c1c(O)c(C)c(O)c(Cc2c(O)c3c(c(C(=O)/C=C/c4ccccc4)c2O)OC(C)(C)C=C3)c1O [Rottlerin] with Vero cells - Vero Viability?
80.7 ± 8.5% of untreated control

What Vero Viability appears in the records for this compound with Vero cells? CNc1ccc2oc(C[C@H]3O[C@@]4(CC[C@H]3C)O[C@H]([C@H](C)C(=O)c3ccc[nH]3)[C@H](C)C[C@H]4C)nc2c1C(=O)O [Compound A23187, A23187]
17.0 ± 6.7% of untreated control

###

Test system: C6/36 cells
Assay type: cell-based, Ae. albopictus
Conditions: 10 µM compound, 96 h, CellTiter-Glo; ± SEM, three independent trials
Residues, ends and D or L forms follow the SMILES beside them. *: point of attachment. Cbz = O=C(OCc1ccccc1)*
Can you tell me C6/36 Viability for the items I'm about to list?

What C6/36 Viability appears in the records for this molecule with C6/36 cells? `Cn1cnc(N)c2ncnc1-2`
120 ± 15.6% of untreated control

// lookup C6/36 Viability | system=C6/36 cells | key= Cc1ccc(S(=O)(=O)NC(=O)NN2CCCCCC2)cc1 [Tolazamide]
113 ± 7.3% of untreated control

I'm curious: which C6/36 Viability was measured for `C=CCNc1ncnc2ccc(Br)cc12` tested on C6/36 cells?
36 ± 5.3% of untreated control

Look up C6/36 Viability with C6/36 cells for this molecule: CC(C)C[C@@H](C=O)NC(=O)[C@H](CC(C)C)NC(=O)[C@H](CC(C)C)NC(=O)OCc1ccccc1 [MG132] (Cbz-Leu-Leu-Leu-aldehyde)
31 ± 5.7% of untreated control

###

Kindly supply the reported C6/36 Viability values for the records listed here.
System: C6/36 cells
Type: cell-based, Ae. albopictus
Conditions: 10 µM compound, 96 h, CellTiter-Glo; ± SEM, three independent trials
Structures can show the parent of a compound that is named as a salt.

Name the reported C6/36 Viability value associated with the molecule `Oc1ccc(/C=C/c2cc(O)cc(O)c2)cc1`
81 ± 7.5% of untreated control

I have this molecule here, `CC(C)Cn1cnc2c(N)nc3ccccc3c21` , and I need its recorded C6/36 Viability.
37 ± 8.1% of untreated control

So what's the measured C6/36 Viability for this one? `O=S(=O)(F)Cc1ccccc1`
81 ± 6.4% of untreated control

Look up C6/36 Viability: `CNc1ccc2oc(C[C@H]3O[C@@]4(CC[C@H]3C)O[C@H]([C@H](C)C(=O)c3ccc[nH]3)[C@H](C)C[C@H]4C)nc2c1C(=O)O`
1 ± 0% of untreated control

Quick check: C6/36 Viability of COc1ccc(CCN(C)CCCC(C#N)(c2ccc(OC)c(OC)c2)C(C)C)cc1OC (stereo not drawn) [Verapamil·HCl] ?
71 ± 2.9% of untreated control

What does the data say about its C6/36 Viability? Entry: O=C(CC(=O)C(F)(F)F)c1cccs1 [TTFA]
78 ± 19.9% of untreated control

So what does the record say about C6/36 Viability for C[C@H](CCC(=O)[O-])[C@H]1CC[C@H]2[C@@H]3CC[C@@H]4C[C@H](O)CC[C@]4(C)[C@H]3C[C@H](O)[C@]12C.[Na+] [Deoxycholate·Na] ?
83 ± 1% of untreated control

Find the recorded C6/36 Viability belonging to `Cc1cccc(Nc2nc(-c3ccncc3)cs2)c1` and report it.
49 ± 9.3% of untreated control

Entry COc1cc([C@@H]2c3cc4c(cc3[C@@H](O[C@@H]3O[C@@H]5CO[C@@H](C)O[C@H]5[C@H](O)[C@H]3O)[C@H]3COC(=O)[C@H]23)OCO4)cc(OC)c1O [Etoposide] : reported C6/36 Viability = ?
119 ± 12.5% of untreated control

Fill in: C6/36 Viability of CNCCCN1c2ccccc2CCc2ccc(Cl)cc21.Cl [Norclomipramine HCl] is ___
19 ± 8.9% of untreated control

Value lookup for C6/36 Viability; key = `C[C@H]1O[C@@H](n2cnc3c(N)ncnc32)C[C@@H]1O`
118 ± 15% of untreated control

# get_value(readout='C6/36 Viability', item= `C=C(C)[C@H]1Cc2c(ccc3c2O[C@@H]2COc4cc(OC)c(OC)cc4[C@@H]2C3=O)O1` )
17 ± 5.8% of untreated control

# lookup: C6/36 Viability of COC(=O)C1=C(C)NC(C)=C([N+](=O)[O-])C1c1ccccc1C(F)(F)F (racemic) [(±)Bay K8644]
53 ± 11.1% of untreated control

Record request: C6/36 Viability value, item COCCOC(=O)C1=C(C)NC(C)=C(C(=O)OC(C)C)C1c1cccc([N+](=O)[O-])c1 (stereo not drawn)
41 ± 8.4% of untreated control

For the molecule shown here, CN(C)C(=N)N=C(N)N [Metformin·HCl] , give the reported C6/36 Viability.
64 ± 10.3% of untreated control

Give the measured C6/36 Viability of CCN(CC)CCCCN1c2ccccc2Oc2ccc(Cl)cc21.Cl [Akt Inhibitor X·HCl] .
7 ± 1.9% of untreated control

Looking for the measured C6/36 Viability of `COC1=C2C[C@@H](C)C[C@H](OC)[C@H](O)[C@@H](C)/C=C(\C)[C@H](OC(N)=O)[C@@H](OC)/C=C\C=C(/C)C(=O)NC(=CC1=O)C2=O` , can you help?
45 ± 5.8% of untreated control

Entry CCCCCCCCCCCCCCC[C@@H](O)[C@H](CO)NC(C)=O [C2-dihydroceramide] has what C6/36 Viability?
97 ± 5.8% of untreated control

What value of C6/36 Viability has been recorded for this entry: `NC(=O)c1ncn([C@@H]2O[C@H](CO)[C@@H](O)[C@H]2O)c1N`
125 ± 16.4% of untreated control

Quick one: C6/36 Viability for Cc1ccc(NC(=O)c2ccc(CN3CCN(C)CC3)cc2)cc1Nc1nccc(-c2cccnc2)n1 [Imatinib mesylate] ?
19 ± 5.4% of untreated control

Please look up its C6/36 Viability: `Nc1cc(N2CCCCC2)nc(N)[n+]1[O-]`
72 ± 2.6% of untreated control

Reported C6/36 Viability, molecule CN1CCN(CCCN2c3ccccc3Sc3ccc(C(F)(F)F)cc32)CC1.Cl.Cl [Trifluoperazine·2HCl] : ____
10 ± 3.8% of untreated control

Look up C6/36 Viability for this molecule: N[C@H]1C(O)O[C@H](CO)[C@@H](O)[C@@H]1O (stereo partly drawn) [Glucosamine HCl]
88 ± 5.2% of untreated control

So what does the record say about C6/36 Viability for CCOC(=O)C1=C(C)NC(C)=C(C(=O)OC)C1c1cccc([N+](=O)[O-])c1 (stereo not drawn) ?
62 ± 10.5% of untreated control

Give its C6/36 Viability value. Item: CN(C)C(=O)C(CCN1CCC(O)(c2ccc(Cl)cc2)CC1)(c1ccccc1)c1ccccc1 [Loperamide HCl]
12 ± 6.1% of untreated control

For `Cn1c(=O)c2c(ncn2C)n(C)c1=O` , what is its reported C6/36 Viability?
83 ± 4.6% of untreated control

# input molecule: `O=C1NCN(c2ccccc2)C12CCN(CCCC(c1ccc(F)cc1)c1ccc(F)cc1)CC2` ; wanted: its C6/36 Viability
26 ± 10.3% of untreated control

# input molecule: CNC(=O)c1cc(Oc2ccc(NC(=O)Nc3ccc(Cl)c(C(F)(F)F)c3)cc2)ccn1 [Sorafenib tosylate] ; wanted: its C6/36 Viability
23 ± 8.8% of untreated control

Fill in the blank: the reported C6/36 Viability of CCCCCC[C@@H]([C@@H](C)O)n1cnc2c(N)ncnc21.Cl [EHNA·HCl] is ____.
55 ± 4.2% of untreated control

For `COc1cccc(-c2cc(=O)c3ccccc3o2)c1N` , what is its reported C6/36 Viability?
93 ± 8.4% of untreated control
